Target: human SCD5 (Homo sapiens, UniProt Q86SK9)
Construct: expressed in transfected cells; host or cells: yeast strain with OLE1 deleted, plasmid-borne human SCD5 (selected in SD-Ura)
Sequence (Q86SK9 1-330): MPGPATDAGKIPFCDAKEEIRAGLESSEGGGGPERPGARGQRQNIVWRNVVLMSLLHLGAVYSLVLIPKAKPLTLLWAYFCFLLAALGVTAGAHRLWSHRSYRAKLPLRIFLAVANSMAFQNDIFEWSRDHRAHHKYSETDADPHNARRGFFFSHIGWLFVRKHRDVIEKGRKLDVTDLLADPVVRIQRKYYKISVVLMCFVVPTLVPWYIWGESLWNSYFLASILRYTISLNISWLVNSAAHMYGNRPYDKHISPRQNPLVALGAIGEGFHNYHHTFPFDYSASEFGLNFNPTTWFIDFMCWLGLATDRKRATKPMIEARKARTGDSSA
Test: Growth inhibition of yeast strain expressing human SCD5 as sole desaturase (OLE1 deleted), OD600 readout
Assay type: cell-based
Conditions: yeast strain expressing human SCD5 as sole desaturase; growth (OD600) after 40 h at 30° C.; read-out: SCD5 IC50
For each entry below, report its IC50 value.

Would you mind telling me what IC50 value was observed for Cc1cncc(Cc2ccc(NC(=O)c3ccc(=O)n(C)c3)nc2)c1 ?
> 45 µM

Would you mind telling me what IC50 value was observed for CN1N=C(C(=O)Nc2ccc(Cc3cncc(F)c3)cn2)CCC1=O ?
> 45 µM

Would you mind telling me what IC50 value was observed for Cc1cncc(Cc2ccc(NC(=O)C3=NN(C)C(=O)CC3)nc2)c1 ?
> 45 µM

Would you mind telling me what IC50 value was observed for Cn1cc(C(=O)Nc2ccc(Cc3cncc(F)c3)cn2)ccc1=O ?
> 45 µM

Would you mind telling me what IC50 value was observed for Cn1cc(C(=O)Nc2nnc(Cc3ccc(F)cc3)s2)ccc1=O ?
> 45 µM

Would you mind telling me what IC50 value was observed for C=CCCc1ccc(NC(=O)C2=NN(C)C(=O)CC2)nc1 ?
> 45 µM
